Target: human CD3 (human, UniProt P07766 23-207; P04234 22-171; P09693 23-182)
Sequence (P07766 23-207, chain 1 of 3): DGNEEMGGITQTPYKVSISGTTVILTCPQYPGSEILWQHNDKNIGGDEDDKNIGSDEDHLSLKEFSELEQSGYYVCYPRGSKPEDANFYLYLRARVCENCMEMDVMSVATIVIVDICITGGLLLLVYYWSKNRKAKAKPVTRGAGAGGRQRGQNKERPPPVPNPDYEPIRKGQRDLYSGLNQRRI
Sequence (P04234 22-171, chain 2 of 3): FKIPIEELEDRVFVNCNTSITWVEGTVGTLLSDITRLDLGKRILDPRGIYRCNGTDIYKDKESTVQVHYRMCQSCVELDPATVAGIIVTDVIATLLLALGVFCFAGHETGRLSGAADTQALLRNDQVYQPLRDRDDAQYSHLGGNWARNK
Sequence (P09693 23-182, chain 3 of 3): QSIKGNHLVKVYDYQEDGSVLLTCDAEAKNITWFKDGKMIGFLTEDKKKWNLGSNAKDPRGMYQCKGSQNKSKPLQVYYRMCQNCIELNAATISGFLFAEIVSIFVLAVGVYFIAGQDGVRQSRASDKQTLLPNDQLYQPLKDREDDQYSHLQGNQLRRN
Test: cell-based or functional assay
Listing of recorded CD8 EC50 (nM); CD69/CD25 on human T cells, plate-coated antibody by entry.
Supply the numeric figure in nM, leaving out any unit text.

Example results:
- mAb 67 (antibody, V domains shown) VH: EVQLVESGGDLVQPGRSLRLSCAASGFTFDDCVIHWVRQAPGKGLEWVSGITWNSGRIGYADSVKGRFTISRDNAKNSLYLQMNSLRVEDTALYYCAKEGNYDFWSTYYRGYFDLWGRGTLVTVSS VL: DIQMTQSPSSLSASVGDRVTITCRASQGIRNDLGWYQQKPGIAPKRLIYAASSLQGGVPLRFSGSGSGTEFTLTISSLQPEDFATYYCLQHNSYPYTFGQGTKLEIK: 21.3
- mAb 158 (antibody, V domains shown) VH: EVQLVESGGGLVQPGRSLRLSCAASGFTFADYTMHWVRQVPGKGLEWVSGISWNSGSVDYADSVKGRFTISRDNAKKTLYLQMNSLRAEDTALYYCAKDSSGYGHYYFYYLDVWGKGTTVTVSS VL: EIVMTQSPATLSVSPGERATLSCRATQSVSSNLAWYQQKPGQAPRLLIYSTSTRATGIPARFSGSRSGTEFTLTISSLQSEDSAVYYCQQYNNWPHFGQGTRLEIK: 6.62
- mAb 96 (antibody, V domains shown) VH: QAHLVESGGGVVQPGRSLRLSCSASGFTFSGYGMHWVRQAPGKGLEWVSLIYFDGRNKYYADSVKGRFTISRDNSKNTLYLQMNSLRAEDTAVYYCARGGGYNWFDPWGQGTLVTVSS VL: DIQMTQSPSSLSASVGDRVTITCRASQSINNYLSWYQQKPGKAPKLLIYLASNLQSGVPSRFSGNGSGTDFTLTISSLQPEDFATYYCQLSYRSPFTFGPGTKVDVK: 19.5
- mAb 101 (antibody, V domains shown) VH: QGQLVESGGGVVQPGRSLRLSCAASGFTFRGFGMHWVRQAPGKGLEWVAIIYYDGKNKYYADSVKGRFTISRDNSKNMLYLQMNSLRAEDTAVYYCAKGGGYNWFDPWGQGTLVTVSS VL: DIQMTQSPSSLSASVGDRVTITCRASQSISTYLNWYQQKPGKAPKLLIYSASSLQSGVPSRFSGSGSGTDFTLTISNLQPEDFAIYYCQRSYSPPFTFGPGTKLDIR: 14.5
- mAb 54 (antibody, V domains shown) VH: EVQLEESGGGLVQPGGSLRLSCAASGFTFSRYSMNWVRQAPGKGLEWFSYISSSSRTIYYADSVKGRFTMSRDNAKNSLYLQMNSLRDEDTAVYFCARGDYYDSEGMDVWGKGTTVTVSS VL: DIQMTQSPSTLSASVGDRVTITCRASQTITTWLAWYQQKPGKAPKLLIYKASTLESGVPSRFSGSGSGTEFTLTISSLQPDDFATYHCQQYKTFSYTFGQGTKLDIK: 15.2

Entry mAb 172 (antibody, V domains shown) V domain 1: EVQLVESGGGLVQPGRSLRLSCTTSGFTFDDYTMHWVRQVPGKGLEWVSDISWNSGSVGYADSVKGRFTISRDNAKNSLYLQMNSLRAEDTALYYCVKDSSGYGHYFHYYMDVWGKGTTVTVSS V domain 2: EVQLVESGGGLVQPGRSLRLSCTTSGFTFDDYTMHWVRQVPGKGLEWVSDISWNSGSVGYADSVKGRFTISRDNAKNSLYLQMNSLRAEDTALYYCVKDSSGYGHYFHYYMDVWGKGTTVTVSS — recorded CD8 EC50 (nM); CD69/CD25 on human T cells, plate-coated antibody = 22.9

Entry mAb 55 (antibody, V domains shown) VH: QVQLEQSGAEVKKPGASVKVSCKTSGYIFANYDINWVRQATGQGLEWMGWMNPKSGKAGYAQKFQGRVTMTSNTPINTAYMELSSLRSEDTAVYYCAREGHYDFWRGFYSFDYWGQGILVTVSS VL: DIQMTQSPSSLSASVGDRVTITCRASQGIRNDLGWYQQKPGKAPKRLIYTASSLQSGVPSRFSGSGSGTEFTLTISSLQPEDFATYFCLQYNTYPYTFGQGTKLEIK — recorded CD8 EC50 (nM); CD69/CD25 on human T cells, plate-coated antibody = 8.91

Entry mAb 176 (antibody, V domains shown) VH: EVELVESGGGLVQPGRSLRLSCAASGFKFDDYTMHWVRLPPGKGLEWVSGISWNSGTIDYGDSVKGRFTISRDNAKNSLYLQMNSLRVEDTALYYCAKDTSGYGHYFYYYMDVWGKGTTVTVSS VL: DIQMTQSPSSLSASIGDRVSITCRTSQIINNYLNWYQQKPGKAPKVLIYSASSLQSGVPSRFSGSGSGTDFTLTINSLQPEDFATYYCQQSYNFPITFGQGTRLELK — recorded CD8 EC50 (nM); CD69/CD25 on human T cells, plate-coated antibody = 6.37

Entry mAb 42 (antibody, V domains shown) VH: QAQLVQSGSELKKPGASVKVSCKASGYTFTKHSMNWVRQAPGQGLEWMGWINTNTGNPTYAQGFTGRFVFSLDTSVTTAYLQISSLKAEDTAVYYCAREGDYDFWSGFFNFDYWGQGTLVTVSS VL: DIQMTQSPSSLSASVGDRVTITCRASQGIRNDLGWYQQKPGKAPKRLIYAASSLQSGVPSRFSGSGSGAEFTLTISSLQPEDFATYYCLQHNSYPRTFGQGTKVEIK — recorded CD8 EC50 (nM); CD69/CD25 on human T cells, plate-coated antibody = 25.5

Entry mAb 126 (antibody, V domains shown) VH: EVQLVESGGGLVQPGRSLRLSCAASGFTFNDYTMHWVRQVPGKGLEWVSGISWNSGSIDYADSVKGRFTISRDNAKNSLYLQMNSLRAEDTALYYCAKDSSGYGYYYYYYMDVWGKGTTVTVSS VL: EIVMTQSPATLSVSPGERATLSCRASQSVSINLAWYQQKPGQAPRLLIYGASTRATGIPARFSGSGSGTEFTLTISSLQSEDFAVYYCQLYHNWPHFGQGTRLEIK — recorded CD8 EC50 (nM); CD69/CD25 on human T cells, plate-coated antibody = 11
